- system_tested: UniProt:P04585
- method: HIV protease inhibition assay (quenched fluorogenic substrate, fluorescence energy transfer)
- recorded_conditions: read-out: Enzyme IC50; crude HIV-1 protease from E. coli, pH 4.7, 2 hours at 37° C.
experimental_endpoint: IC50

{"molecule": "COC1CCC(C[C@@H](O)[C@H](Cc2ccccc2)NC(=O)[C@@H](C[S+]([O-])c2ccc3ccccc3c2)NS(C)(=O)=O)C(C(=O)NC(C)(C)C)C1 (stereo partly shown)", "result": "0.2 nM"}

====

Each entry below carries its reported IC50.
- system_tested: HIV-1 protease (Human immunodeficiency virus type 1 group M subtype B)
- method: HIV protease inhibition assay (quenched fluorogenic substrate, fluorescence energy transfer)
- recorded_conditions: Enzyme IC50 (nM), crude HIV-1 protease from E. coli, pH 4.7, 2 hours at 37° C.

{"compound": "COC1CCC(C[C@@H](O)[C@H](Cc2ccccc2)NC(=O)[C@@H](CSc2ccc3ccccc3c2)NS(C)(=O)=O)C(C(=O)NC(C)(C)C)C1 (stereo partly shown) [Example 1]", "system_tested": "HIV-1 protease (Human immunodeficiency virus type 1 group M subtype B)", "IC50 / nM": 0.31}
{"compound": "CC(C)(C)NC(=O)[C@@H]1CCCCC1C[C@@H](O)[C@H](Cc1ccccc1)NC(=O)[C@@H](CSc1cccc2ccccc12)NS(C)(=O)=O (stereo in doubt)", "system_tested": "HIV-1 protease (Human immunodeficiency virus type 1 group M subtype B)", "IC50 / nM": 0.44}
{"compound": "CC1CC(C[C@@H](O)[C@H](Cc2ccccc2)NC(=O)[C@@H](CS(=O)(=O)c2ccc3ccccc3c2)NS(C)(=O)=O)C(C(=O)NC(C)(C)C)C1 (stereo partly shown)", "system_tested": "HIV-1 protease (Human immunodeficiency virus type 1 group M subtype B)", "IC50 / nM": 0.55}
{"compound": "CC1CC(C[C@@H](O)[C@H](Cc2ccccc2)NC(=O)[C@@H](CSc2ccc3ccccc3c2)NS(C)(=O)=O)C(C(=O)NC(C)(C)C)C1 (stereo partly shown)", "system_tested": "HIV-1 protease (Human immunodeficiency virus type 1 group M subtype B)", "IC50 / nM": 1.5}

====

- Tested on: HIV-HXB2 in MT4 cells
- method: Antiviral assay: protection of HIV-infected MT4 cells from cell death (MTT)
- Type: cell-based
- recorded_conditions: Human immunodeficiency virus 1, HXB2, MT4, 120 h, MT4 cells infected with HIV-HXB2, 5 days, concentration preserving cell viability by 50%
experimental_endpoint: log10(IC50) (log10 of the value in nM)

{"molecule": "CO[C@H]1CC[C@@H](C(=O)NC(C)(C)C)C(C[C@@H](O)[C@H](Cc2ccccc2)NC(=O)[C@@H](CS(=O)(=O)c2ccc3ccccc3c2)NS(C)(=O)=O)C1 (stereo partly drawn)", "system_tested": "HIV-HXB2 in MT4 cells", "numeric_value": 0.92}
{"molecule": "CC1CC(C[C@@H](O)[C@H](Cc2ccccc2)NC(=O)[C@@H](CS(=O)(=O)c2ccc3ccccc3c2)NS(C)(=O)=O)C(C(=O)NC(C)(C)C)C1 (stereo partly drawn)", "system_tested": "HIV-HXB2 in MT4 cells", "numeric_value": 1.11}
{"molecule": "CO[C@H]1CC[C@@H](C(=O)NC(C)(C)C)C(C[C@@H](O)[C@H](Cc2ccccc2)NC(=O)[C@@H](CSc2ccc3ccccc3c2)NS(C)(=O)=O)C1 (stereo partly drawn)", "system_tested": "HIV-HXB2 in MT4 cells", "numeric_value": 1.55}
{"molecule": "COC1CCC(C[C@@H](O)[C@H](Cc2ccccc2)NC(=O)[C@@H](CS(=O)(=O)c2ccc3ccccc3c2)NS(C)(=O)=O)C(C(=O)NC(C)(C)C)C1 (stereo partly drawn)", "system_tested": "HIV-HXB2 in MT4 cells", "numeric_value": 2.24}
{"molecule": "CC1CC(C[C@@H](O)[C@H](Cc2ccccc2)NC(=O)[C@@H](CSc2ccc3ccccc3c2)NS(C)(=O)=O)C(C(=O)NC(C)(C)C)C1 (stereo partly drawn)", "system_tested": "HIV-HXB2 in MT4 cells", "numeric_value": 2.36}
{"molecule": "COC1CCC(C[C@@H](O)[C@H](Cc2ccccc2)NC(=O)[C@@H](CSc2ccc3ccccc3c2)NS(C)(=O)=O)C(C(=O)NC(C)(C)C)C1 (stereo partly drawn)", "system_tested": "HIV-HXB2 in MT4 cells", "numeric_value": 1.46}
